Origin of measurements: patent US20250052767A1

# tested on: T1, human CD28 (human, UniProt P10747 19-220, On cells CD28 is a disulfide linked homodimer and a glycoprotein; one copy of the chain is given.)
# T1 construct: also called T-cell specific surface glycoprotein CD28
# T1 sequence (P10747 19-220 limits assumed): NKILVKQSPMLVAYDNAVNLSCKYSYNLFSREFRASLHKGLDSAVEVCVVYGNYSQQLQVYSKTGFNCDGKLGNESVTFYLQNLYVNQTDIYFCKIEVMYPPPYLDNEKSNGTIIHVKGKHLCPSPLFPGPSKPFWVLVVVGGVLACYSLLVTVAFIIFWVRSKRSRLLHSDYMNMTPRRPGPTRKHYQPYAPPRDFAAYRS
# protocol notes: flow cytometry, PE-conjugated antibody on 4% PFA-fixed human peripheral blood cells
outcome measure: S/N on fixed cells
Answer field: number only, no words.

Read off the recorded S/N on fixed cells for exemplary anti-CD28 antibody AB7 (antibody, V domains shown, Mouse hybridoma monoclonal antibody; Conjugated to PE in the staining assays; also called antibody 7; clone 7) VH: KVQLQQSGAGLVKPGASVKLSCKASGYTFSDYIINWVKQRSGQGLEWIGWFYPGSGSINYNEKFKDKATLTADKSSSTVYMDLSRLTSEDSAVYFCARREDRGGYDAFDYWGQGTTLTVSS VL: DIQMTQSPASLSVSVGETVTITCRTSENIYSNLAWYQQKQGKSPQLLVYAATKLADGVPSRFSGSGSGTQYSLRINSLQPEDFGSYYCQHFWGTPWTFGGGTKLEIK
108

Read off the recorded S/N on fixed cells for exemplary anti-CD28 antibody AB6 (antibody, V domains shown, Mouse hybridoma monoclonal antibody; Conjugated to PE in the staining assays; also called antibody 6; clone 6) VH: KVQLQQSGAGLVKPGASVKLSCKTSGYTFSDYIINWVKQRSGQGLEWIGWFYPGSGSINYNEKFKDKATLTADKSSSTVYMDLSRLTSEDSAVYFCARREDRGGYDAFDYWGQGTTLTVSS VL: DIQMTQSPASLSVSVGETVTITCRASENIYSNLAWYQQKQGKSPQLLVYAATKLADGVPSRFSGSGSGTQYSLRINSLQSEDFGSYYCQHFWGTPWTFGGGTKLEIK
101
